- Tested target: T1, CD71 apical domain (UniProt P02786 189-383, limits assumed)
- T1 construct: domain: Apical domain
- T1 sequence (P02786 189-383 limits assumed): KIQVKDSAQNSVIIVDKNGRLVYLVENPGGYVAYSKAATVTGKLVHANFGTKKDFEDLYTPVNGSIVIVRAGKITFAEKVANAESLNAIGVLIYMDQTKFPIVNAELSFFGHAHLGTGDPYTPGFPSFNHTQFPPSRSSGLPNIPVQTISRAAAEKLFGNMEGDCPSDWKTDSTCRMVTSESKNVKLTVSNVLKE
- Assay comment: solution ELISA
Endpoint: Apical domain, RLU (RLU)

Some solved cases for reference:
Binder | Apical domain, RLU (RLU)
SEQ ID NO 196 (designed binder, FN3 domain) MLPAPKNLVVSRVTEDSARLSWTAPDAAFDSFYIAYAEPRPDGEAIVLWVPGSERSYDLTGLKPGTEYSVLIHGVKGGLLSSPLRASFTT | 5.93e+06
SEQ ID NO 111 (designed binder, FN3 domain) MLPAPKNLVVSRVTEDSARLSWTAPDAAFDSFFIGYLEPQPPGEAIDLGVPGSERSYDLTGLKPGTEYNVTIQGVKGGFPSMPLDPLEAYFTT | 113000
SEQ ID NO 116 (designed binder, FN3 domain) MLPAPKNLVVSRVTEDSARLSWTAPDAAFDSFYIAYAEPRPDGEAIQLVVPGSERSYDLTGLKPGTEYSVLIHGVKGGLLSSPLSAIFTT | 4.93e+06

I. SEQ ID NO 104 (designed binder, FN3 domain) MLPAPKNLVVSRVTEDSARLSWTAPDAAFDSFYIAYAEPRPDGEAISLLVPGSERSYDLTGLKPGTEYSVLIHGVKGGLLSSPLYAVFTT
II. SEQ ID NO 172 (designed binder, FN3 domain) MLPAPKNLVVSRVTEDSARLSWTAPDAAFDSFFIGYLEPQPPGEAIVLTVPGSERSYDLTGLKPGTEYNVTIQGVKGGFPSMPLASFTT
# return whichever of I and II has the smaller Apical domain, RLU Your answer should be the label attached to the chosen record.
II
